EXPERIMENTAL PARAMETERS: human gut metagenome, 24 h, 2 µM; further: call rule not given here

{"COMPOUND": "O=C(NCc1ccccc1)OCCO [BURAMATE]", "Bacterial Biotransformation": "Compound NOT metabolized"}
{"COMPOUND": "N#Cc1ccc(C(c2ccc(C#N)cc2)n2cncn2)cc1 [LETROZOLE]", "Bacterial Biotransformation": "Compound NOT metabolized"}
{"COMPOUND": "CS(=O)(=O)O.OC(CCN1CCCCC1)(c1ccccc1)c1ccccc1 [PRIDINOL METHANESULFONATE]", "Bacterial Biotransformation": "Compound metabolized"}
{"COMPOUND": "COc1ccc2c3c1O[C@H]1C[C@@H](O)C=C[C@@]31CCN(C)C2 [GALANTAMINE]", "Bacterial Biotransformation": "Compound metabolized"}
{"COMPOUND": "COc1ccccc1OCC(O)CN1CCN(CC(=O)Nc2c(C)cccc2C)CC1 (centres undefined) [RANOLAZINE]", "Bacterial Biotransformation": "Compound NOT metabolized"}
{"COMPOUND": "NS(=O)(=O)c1cc2c(cc1Cl)N=C(CSCc1ccccc1)NS2(=O)=O [BENZTHIAZIDE]", "Bacterial Biotransformation": "Compound NOT metabolized"}
{"COMPOUND": "CN1CCOC(c2ccccc2)c2ccccc2C1 (centres undefined) [NEFOPAM]", "Bacterial Biotransformation": "Compound metabolized"}
{"COMPOUND": "CCc1nc(N)nc(N)c1-c1ccc(Cl)cc1 [PYRIMETHAMINE]", "Bacterial Biotransformation": "Compound metabolized"}
{"COMPOUND": "O=c1[nH]c2ccccc2n1C1CCN(CCCC(c2ccc(F)cc2)c2ccc(F)cc2)CC1 [PIMOZIDE]", "Bacterial Biotransformation": "Compound metabolized"}
{"COMPOUND": "COc1c2occc2cc2ccc(=O)oc12 [METHOXSALEN]", "Bacterial Biotransformation": "Compound metabolized"}
{"COMPOUND": "CC(C(=O)O)c1ccc2c(c1)Cc1cccnc1O2 (centres undefined) [PRANOPROFEN]", "Bacterial Biotransformation": "Compound metabolized"}
{"COMPOUND": "CC[C@@H](CO)NC(=O)[C@@H]1C=C2c3cccc4c3c(cn4C)C[C@H]2N(C)C1.O=C(O)/C=C\\C(=O)O [METHYSERGIDE MALEATE]", "Bacterial Biotransformation": "Compound NOT metabolized"}
{"COMPOUND": "CCOC(=O)[C@H](CCc1ccccc1)N[C@@H](C)C(=O)N1[C@H](C(=O)O)C[C@H]2CCCC[C@@H]21 [TRANDOLAPRIL]", "Bacterial Biotransformation": "Compound metabolized"}
{"COMPOUND": "CCN1CCCC1CNC(=O)c1cc(S(N)(=O)=O)ccc1OC (centres undefined) [SULPIRIDE]", "Bacterial Biotransformation": "Compound metabolized"}
{"COMPOUND": "OC(Cn1cncn1)(Cn1cncn1)c1ccc(F)cc1F [FLUCONAZOLE]", "Bacterial Biotransformation": "Compound metabolized"}
{"COMPOUND": "CCCc1nc(C(C)(C)O)c(C(=O)OCc2oc(=O)oc2C)n1Cc1ccc(-c2ccccc2-c2nnn[nH]2)cc1 [OLMESARTAN MEDOXOMIL]", "Bacterial Biotransformation": "Compound metabolized"}
{"COMPOUND": "Cc1ccc(/C(=C\\CN2CCCC2)c2ccccn2)cc1 [TRIPROLIDINE]", "Bacterial Biotransformation": "Compound NOT metabolized"}
{"COMPOUND": "Nc1nc2ccc(OC(F)(F)F)cc2s1 [RILUZOLE]", "Bacterial Biotransformation": "Compound metabolized"}
{"COMPOUND": "Nc1ccc(/N=N/c2ccccc2)c(N)n1 [PHENAZOPYRIDINE]", "Bacterial Biotransformation": "Compound metabolized"}

* * *

PROTOCOL DETAILS: The drug is tested on WLS-098 corresponding to human gut metagenome with ENA study accession number: PRJEB37062 and ENA sample accession number: ERS12561754 for biotransformation under anaerobic condition. The drug concentrations were measured over 9 timepoints collected between 0 and 24 hours of incubation by liquid-chromatography-coupled mass spectrometry (LC–MS)
EXPERIMENTAL PARAMETERS: 2 µM

{"MOLECULE": "CCOC(=O)[C@H](CCc1ccccc1)N[C@@H](C)C(=O)N1[C@H](C(=O)O)C[C@H]2CCCC[C@@H]21", "Bacterial Biotransformation": "Compound metabolized"}
{"MOLECULE": "CN1CCN(C(=O)O[C@H]2c3nccnc3C(=O)N2c2ccc(Cl)cn2)CC1", "Bacterial Biotransformation": "Compound NOT metabolized"}
{"MOLECULE": "CN1C(=O)CC(C)(c2ccccc2)C1=O (stereo not given) [METHSUXIMIDE]", "Bacterial Biotransformation": "Compound NOT metabolized"}
{"MOLECULE": "CCN(CC)CCOCCOC(=O)C1(c2ccccc2)CCCC1.O=C(O)CC(O)(CC(=O)O)C(=O)O [CARBETAPENTANE CITRATE]", "Bacterial Biotransformation": "Compound metabolized"}
{"MOLECULE": "CC(C)(C)NC[C@H](O)COc1ccccc1C1CCCC1.CC(C)(C)NC[C@H](O)COc1ccccc1C1CCCC1.O=S(=O)(O)O [PENBUTOLOL SULFATE]", "Bacterial Biotransformation": "Compound metabolized"}
{"MOLECULE": "CC(=O)OCC(=O)[C@@]12N=C(C)O[C@@H]1C[C@H]1[C@@H]3CCC4=CC(=O)C=C[C@]4(C)[C@H]3[C@@H](O)C[C@@]12C", "Bacterial Biotransformation": "Compound metabolized"}
{"MOLECULE": "CC(C)c1nc(CN(C)C(=O)N[C@H](C(=O)N[C@@H](Cc2ccccc2)C[C@H](O)[C@H](Cc2ccccc2)NC(=O)OCc2cncs2)C(C)C)cs1", "Bacterial Biotransformation": "Compound metabolized"}
{"MOLECULE": "CN1CCC(=C2c3ccccc3CCc3cccnc32)CC1.O=C(O)/C=C\\C(=O)O.O=C(O)/C=C\\C(=O)O [AZATADINE MALEATE]", "Bacterial Biotransformation": "Compound NOT metabolized"}
{"MOLECULE": "Cc1ccc(S(=O)(=O)NC(=O)NN2CCCCCC2)cc1 [TOLAZAMIDE]", "Bacterial Biotransformation": "Compound metabolized"}
{"MOLECULE": "CNCCC(Oc1ccc(C(F)(F)F)cc1)c1ccccc1 (stereo not given)", "Bacterial Biotransformation": "Compound NOT metabolized"}
{"MOLECULE": "CCCCC1=NC2(CCCC2)C(=O)N1Cc1ccc(-c2ccccc2-c2nnn[nH]2)cc1", "Bacterial Biotransformation": "Compound metabolized"}
{"MOLECULE": "CCCCC(=O)N(Cc1ccc(-c2ccccc2-c2nnn[nH]2)cc1)[C@H](C(=O)O)C(C)C", "Bacterial Biotransformation": "Compound metabolized"}
{"MOLECULE": "CCCc1nn(C)c2c(=O)[nH]c(-c3cc(S(=O)(=O)N4CCN(C)CC4)ccc3OCC)nc12.O=C(O)CC(O)(CC(=O)O)C(=O)O [SILDENAFIL CITRATE]", "Bacterial Biotransformation": "Compound NOT metabolized"}
{"MOLECULE": "Cc1ccccc1N1C(=O)c2cc(S(N)(=O)=O)c(Cl)cc2NC1C (stereo not given)", "Bacterial Biotransformation": "Compound metabolized"}
{"MOLECULE": "COc1ccc2[nH]c([S+]([O-])Cc3ncc(C)c(OC)c3C)nc2c1 (stereo not given)", "Bacterial Biotransformation": "Compound metabolized"}

* * *

PROTOCOL DETAILS: The drug is tested on Z-022 corresponding to mouse gut metagenome with ENA study accession number: PRJEB37062 and ENA sample accession number: ERS12561821 for biotransformation under anaerobic condition. The drug concentrations were measured over 9 timepoints collected between 0 and 24 hours of incubation by liquid-chromatography-coupled mass spectrometry (LC–MS)
EXPERIMENTAL PARAMETERS: 2 µM
VALUE TYPE: Bacterial Biotransformation

{"MOLECULE": "O=C(O)COCCN1CCN(C(c2ccccc2)c2ccc(Cl)cc2)CC1 (stereo not given) [CETIRIZINE]", "MEASURED": "Compound metabolized"}
{"MOLECULE": "CCc1nc(N)nc(N)c1-c1ccc(Cl)cc1 [PYRIMETHAMINE]", "MEASURED": "Compound metabolized"}
{"MOLECULE": "O=P(O)(O)O.c1ccc(CN(CC2=NCCN2)c2ccccc2)cc1 [ANTAZOLINE PHOSPHATE]", "MEASURED": "Compound NOT metabolized"}
{"MOLECULE": "CCN(CC)CC#CCOC(=O)C(O)(c1ccccc1)C1CCCCC1.Cl (stereo not given) [OXYBUTYNIN CHLORIDE]", "MEASURED": "Compound metabolized"}
{"MOLECULE": "CN1CCOC(c2ccccc2)c2ccccc2C1 (stereo not given) [NEFOPAM]", "MEASURED": "Compound NOT metabolized"}

* * *

EXPERIMENTAL PARAMETERS: human gut metagenome, 24 h, 2 µM
VALUE TYPE: Bacterial Biotransformation

{"COMPOUND": "CC(C)(Oc1ccc(CCNC(=O)c2ccc(Cl)cc2)cc1)C(=O)O [BEZAFIBRATE]", "VALUE TYPE": "Bacterial Biotransformation", "MEASURED": "Compound metabolized"}
{"COMPOUND": "CN(C)CCc1c[nH]c2ccc(Cn3cncn3)cc12.O=C(O)c1ccccc1 [RIZATRIPTAN BENZOATE]", "VALUE TYPE": "Bacterial Biotransformation", "MEASURED": "Compound NOT metabolized"}
{"COMPOUND": "O=c1n(CCCN2CCN(c3cccc(Cl)c3)CC2)nc2ccccn12 [TRAZODONE]", "VALUE TYPE": "Bacterial Biotransformation", "MEASURED": "Compound metabolized"}
{"COMPOUND": "CO[C@]12C[C@@H](COC(=O)c3cncc(Br)c3)CN(C)[C@@H]1Cc1cn(C)c3cccc2c13 [NICERGOLINE]", "VALUE TYPE": "Bacterial Biotransformation", "MEASURED": "Compound NOT metabolized"}
{"COMPOUND": "O=c1[nH]c2ccccc2n1CCCN1CCC(n2c(=O)[nH]c3cc(Cl)ccc32)CC1 [DOMPERIDONE]", "VALUE TYPE": "Bacterial Biotransformation", "MEASURED": "Compound NOT metabolized"}
{"COMPOUND": "CN1C(=O)CCS(=O)(=O)C1c1ccc(Cl)cc1 (centres undefined) [CHLORMEZANONE]", "VALUE TYPE": "Bacterial Biotransformation", "MEASURED": "Compound NOT metabolized"}
{"COMPOUND": "CN1CCN(C2=Nc3cc(Cl)ccc3Nc3ccccc32)CC1 [CLOZAPINE]", "VALUE TYPE": "Bacterial Biotransformation", "MEASURED": "Compound NOT metabolized"}
{"COMPOUND": "CCN1CCCC1CNC(=O)c1cc(S(N)(=O)=O)ccc1OC (centres undefined) [SULPIRIDE]", "VALUE TYPE": "Bacterial Biotransformation", "MEASURED": "Compound metabolized"}
{"COMPOUND": "Cc1ccccc1N1C(=O)c2cc(S(N)(=O)=O)c(Cl)cc2NC1C (centres undefined) [METOLAZONE]", "VALUE TYPE": "Bacterial Biotransformation", "MEASURED": "Compound metabolized"}

Provenance of the data: ChEMBL document CHEMBL5724914
